Would you kindly list IC50 for each of these compounds?
- System: MCF7
- Assay explanation: Cytotoxicity against human MCF7 cells after 48 hrs by MTT assay
- Format: functional, cell-based
- Condition details: MCF7, 48 h
// units = nM; emit number, no label

Q: Item CC(C)=CCC[C@]1(C)C=Cc2c(O)c3c(c(CC=C(C)C)c2O1)O[C@]12C(=C[C@@H]4C[C@H]1C(C)(C)O[C@@]2(C/C=C(/C)C(=O)O)C4=O)C3=O [GAMBOGIC ACID] has what recorded IC50?
Result: 500

Q: Item `COC(=O)/C(C)=C\C[C@@]12OC(C)(C)[C@@H]3C[C@@H](C=C4C(=O)c5c(O)c6c(c(CC=C(C)C)c5O[C@]431)O[C@]1(C)CCC(=C(C)C)C6C1)C2=O` has what recorded IC50?
Result: 1880

Q: Item COC(=O)/C(C)=C\C[C@@]12OC(C)(C)[C@@H]3C[C@@H](C=C4C(=O)c5c(O)c(C6C[C@](C)(OC)CCC6=C(C)C)c6c(c5O[C@]431)CCC(C)(C)O6)C2=O (some centres undefined) has what recorded IC50?
Result: 1240

Q: Item COC(=O)/C(C)=C\C[C@@]12OC(C)(C)[C@@H]3C[C@@H](C=C4C(=O)c5c(O)c6c(c(CC=C(C)C)c5O[C@]431)O[C@](C)(CCC=C(C)C)C=C6)C2=O [METHYL GAMBOGATE] has what recorded IC50?
Result: 520

Attribution: ChEMBL document CHEMBL1156204
